melting point reference

>>> recordedresult("O=[N+]([O-])c1cc(F)c(N2CCN(c3ccccc3F)CC2)cc1O")
"180 to 181 °C"
>>> recordedresult("Cc1ccc(N2CCN(c3cc(O)c([N+](=O)[O-])cc3F)CC2)cc1")
"178 to 179 °C"
>>> recordedresult("Cc1nc2cc(F)c(N3CCN(c4ccccc4)CC3)cc2o1")
"153 to 154 °C"
>>> recordedresult("COc1cccc(N2CCN(c3cc(O)c([N+](=O)[O-])cc3F)CC2)c1")
"148 to 149 °C"
>>> recordedresult("Cc1nc2cc(F)c(N3CCN(c4cccc(O)c4)CC3)cc2o1")
"211 to 213 °C"
>>> recordedresult("COc1cccc(N2CCN(c3cc4oc(C)nc4cc3F)CC2)c1")
"124 to 125 °C"
>>> recordedresult("O=[N+]([O-])c1cc(F)c(Cl)cc1O")
"82 to 83 °C"
>>> recordedresult("Cc1nc2cc(F)c(N3CCN(c4ccc(O)cc4)CC3)cc2o1")
"188 to 191 °C"

Turning to the following compound.
input: What value of melting point has been recorded for this entry: O=[N+]([O-])c1cc(F)c(N2CCN(c3ccc(F)cc3)CC2)cc1O
output: 151 to 152 °C
